# Test system: Pseudomonas aeruginosa
# ASSAY COMMENT: Antimicrobial activity against ampD::lox and nagZ::lox gene-deficient Pseudomonas aeruginosa PAO1 by Etest method
# Type: functional
PROPERTY NAME: MIC (µg/mL)

MOLECULE	PROPERTY NAME	UNIT ANNOTATION	NUMERIC VALUE
CO/N=C(\C(=O)N[C@@H]1C(=O)N2C(C(=O)[O-])=C(C[N+]3(C)CCCC3)CS[C@H]12)c1csc(N)n1 [CEFEPIME]	MIC	µg/mL	1.5
C[C@@H](O)[C@H]1C(=O)N2C(C(=O)O)=C(SCCNC=N)C[C@H]12 [IMIPENEM ANHYDROUS]	MIC	µg/mL	1
CC(C)(O/N=C(\C(=O)N[C@@H]1C(=O)N2C(C(=O)[O-])=C(C[n+]3ccccc3)CS[C@H]12)c1csc(N)n1)C(=O)O	MIC	µg/mL	2
C[C@@H](O)[C@H]1C(=O)N2C(C(=O)O)=C(S[C@@H]3CN[C@H](C(=O)N(C)C)C3)[C@H](C)[C@H]12	MIC	µg/mL	0.5

----------
# System: Pseudomonas aeruginosa
# ASSAY COMMENT: Antimicrobial activity against ampD::lox, ampDh2::lox,ampDh3::lox and nagZ::lox gene-deficient Pseudomonas aeruginosa PAO1 by Etest method
# Type: functional

MOLECULE	MIC, µg/mL
C[C@@H](O)[C@H]1C(=O)N2C(C(=O)O)=C(S[C@@H]3CN[C@H](C(=O)N(C)C)C3)[C@H](C)[C@H]12	1
C[C@@H](O)[C@H]1C(=O)N2C(C(=O)O)=C(SCCNC=N)C[C@H]12 [IMIPENEM ANHYDROUS]	1.5
CO/N=C(\C(=O)N[C@@H]1C(=O)N2C(C(=O)[O-])=C(C[N+]3(C)CCCC3)CS[C@H]12)c1csc(N)n1 [CEFEPIME]	3
CC(C)(O/N=C(\C(=O)N[C@@H]1C(=O)N2C(C(=O)[O-])=C(C[n+]3ccccc3)CS[C@H]12)c1csc(N)n1)C(=O)O	3
C[C@H]1[C@H](NC(=O)/C(=N\OC(C)(C)C(=O)O)c2csc(N)n2)C(=O)N1S(=O)(=O)O	8

----------
# Test system: Pseudomonas aeruginosa
# ASSAY COMMENT: Antimicrobial activity against ampC::lox gene-deficient Pseudomonas aeruginosa PAO1 by Etest method
# Type: functional

MOLECULE	MIC
C[C@H]1[C@H](NC(=O)/C(=N\OC(C)(C)C(=O)O)c2csc(N)n2)C(=O)N1S(=O)(=O)O	2 µg/mL
C[C@@H](O)[C@H]1C(=O)N2C(C(=O)O)=C(S[C@@H]3CN[C@H](C(=O)N(C)C)C3)[C@H](C)[C@H]12	0.25 µg/mL
C[C@@H](O)[C@H]1C(=O)N2C(C(=O)O)=C(SCCNC=N)C[C@H]12 [IMIPENEM ANHYDROUS]	0.5 µg/mL
CO/N=C(\C(=O)N[C@@H]1C(=O)N2C(C(=O)[O-])=C(C[N+]3(C)CCCC3)CS[C@H]12)c1csc(N)n1 [CEFEPIME]	1 µg/mL
CC(C)(O/N=C(\C(=O)N[C@@H]1C(=O)N2C(C(=O)[O-])=C(C[n+]3ccccc3)CS[C@H]12)c1csc(N)n1)C(=O)O	1 µg/mL

----------
# Tested on: Pseudomonas aeruginosa
# ASSAY COMMENT: Antimicrobial activity against dacB::lox gene-deficient Pseudomonas aeruginosa PAO1 by Etest method
# Format: functional
Parameter: MIC. Scope: all listed entries.

MOLECULE	MIC
CO/N=C(\C(=O)N[C@@H]1C(=O)N2C(C(=O)[O-])=C(C[N+]3(C)CCCC3)CS[C@H]12)c1csc(N)n1 [CEFEPIME]	12 µg/mL
CC(C)(O/N=C(\C(=O)N[C@@H]1C(=O)N2C(C(=O)[O-])=C(C[n+]3ccccc3)CS[C@H]12)c1csc(N)n1)C(=O)O [CEFTAZIDIME]	24 µg/mL
C[C@@H](O)[C@H]1C(=O)N2C(C(=O)O)=C(S[C@@H]3CN[C@H](C(=O)N(C)C)C3)[C@H](C)[C@H]12 [MEROPENEM]	0.5 µg/mL
C[C@H]1[C@H](NC(=O)/C(=N\OC(C)(C)C(=O)O)c2csc(N)n2)C(=O)N1S(=O)(=O)O [AZTREONAM]	24 µg/mL
C[C@@H](O)[C@H]1C(=O)N2C(C(=O)O)=C(SCCNC=N)C[C@H]12 [IMIPENEM ANHYDROUS]	2 µg/mL

Attribution: ChEMBL document CHEMBL1687765
